- TARGET: human LOXL2 (Homo sapiens (Human), UniProt Q9Y4K0)
- Sequence (Q9Y4K0 26-774): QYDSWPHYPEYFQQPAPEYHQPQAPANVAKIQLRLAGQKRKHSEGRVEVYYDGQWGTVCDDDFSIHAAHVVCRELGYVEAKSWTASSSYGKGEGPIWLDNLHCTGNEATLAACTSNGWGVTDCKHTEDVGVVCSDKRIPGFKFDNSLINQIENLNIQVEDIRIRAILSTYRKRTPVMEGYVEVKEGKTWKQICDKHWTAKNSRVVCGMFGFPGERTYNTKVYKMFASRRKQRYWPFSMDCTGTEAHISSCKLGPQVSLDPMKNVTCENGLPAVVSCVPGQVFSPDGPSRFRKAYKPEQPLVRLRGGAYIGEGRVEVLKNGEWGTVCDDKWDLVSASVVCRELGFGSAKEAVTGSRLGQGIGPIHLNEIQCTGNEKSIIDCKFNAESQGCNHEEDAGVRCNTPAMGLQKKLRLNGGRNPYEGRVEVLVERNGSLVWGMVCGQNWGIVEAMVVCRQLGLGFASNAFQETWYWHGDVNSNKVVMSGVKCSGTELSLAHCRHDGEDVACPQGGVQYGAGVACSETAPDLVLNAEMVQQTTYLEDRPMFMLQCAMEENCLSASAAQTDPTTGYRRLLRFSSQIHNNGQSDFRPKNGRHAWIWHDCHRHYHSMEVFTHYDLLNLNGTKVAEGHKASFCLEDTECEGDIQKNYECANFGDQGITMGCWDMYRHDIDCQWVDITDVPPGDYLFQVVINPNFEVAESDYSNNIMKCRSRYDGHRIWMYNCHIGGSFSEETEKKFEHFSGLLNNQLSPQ
pIC50: −log10 of the molar value. Counter-ions that a name gives are not always drawn.
MEASUREMENT_NAME: pIC50

[[record]]
molecule = "CC(C)n1cnnc1-c1cccc(NC(=O)c2cccc(Oc3cc(CN)cc(C(F)(F)F)n3)c2)n1 [Compound 1-331, hydrochloride]"
target = "human LOXL2 (Homo sapiens (Human), UniProt Q9Y4K0)"
recorded_measurement = "> 6.52"

[[record]]
molecule = "NCc1cc(Oc2ccnc(C(=O)Nc3cccc(-c4nncn4C4CC4)n3)c2)nc(C(F)(F)F)c1 [Compound 1-330, hydrochloride]"
target = "human LOXL2 (Homo sapiens (Human), UniProt Q9Y4K0)"
recorded_measurement = "> 6.52"

[[record]]
molecule = "CC(C)n1cnnc1-c1cccc(NC(=O)c2cc(NC(=O)c3ccc(CN)cc3)ccc2F)n1 [Compound 1-306, hydrochloride]"
target = "human LOXL2 (Homo sapiens (Human), UniProt Q9Y4K0)"
recorded_measurement = "< 6.00"


----------
- TARGET: ASK1 (Homo sapiens (Human), UniProt Q99683)
- Sequence (Q99683 649-946): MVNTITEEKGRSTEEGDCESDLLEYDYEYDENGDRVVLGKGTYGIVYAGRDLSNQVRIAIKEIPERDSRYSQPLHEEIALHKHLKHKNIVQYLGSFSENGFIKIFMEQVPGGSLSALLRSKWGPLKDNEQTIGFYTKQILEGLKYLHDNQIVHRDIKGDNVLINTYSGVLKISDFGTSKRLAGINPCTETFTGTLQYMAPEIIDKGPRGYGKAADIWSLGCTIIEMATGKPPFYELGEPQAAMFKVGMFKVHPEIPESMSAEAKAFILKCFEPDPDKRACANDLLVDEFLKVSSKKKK
- MEASUREMENT_DESCRIPTION: Human ASK1 ADP-Glo kinase assay
- CONDITION_INFO: recombinant ASK1 (amino acids 649-946), 50 μM ATP, MBP substrate
Counter-ions that a name gives are not always drawn.
Catalogue of IC50 values
MEASUREMENT_NAME: IC50

[[record]]
compound = "CC(C)n1cnnc1-c1cccc(NC(=O)c2cc(NC(=O)c3ccc(F)c(F)c3)ccc2F)n1 [Compound 1-334, hydrochloride]"
recorded_measurement = "< 300 nM"

[[record]]
compound = "CC(C)n1cnnc1-c1cccc(NC(=O)c2cccc(OCc3cccnc3)c2)n1 [Compound 1-181, hydrochloride]"
recorded_measurement = "< 300 nM"

[[record]]
compound = "CC(C)n1cnnc1-c1cccc(NC(=O)c2cc(Oc3cccc(C(F)(F)F)n3)ccc2F)c1 [Compound 1-223, hydrochloride]"
recorded_measurement = "< 300 nM"

[[record]]
compound = "CC(C)n1cnnc1-c1cccc(NC(=O)c2cc(NC(=O)c3ccc(CN)cc3)ccc2F)n1 [Compound 1-306, hydrochloride]"
recorded_measurement = "< 300 nM"

[[record]]
compound = "CC(C)n1cnnc1-c1cccc(NC(=O)c2cc(NC(=O)c3cncnc3)ccc2F)n1 [Compound 1-313, hydrochloride]"
recorded_measurement = "< 300 nM"

[[record]]
compound = "CC(C)n1cnnc1-c1cccc(NC(=O)c2cc(NC(=O)c3ccccc3)ccc2F)n1 [Compound 1-305, hydrochloride]"
recorded_measurement = "< 300 nM"

[[record]]
compound = "CC(C)n1cnnc1-c1cccc(NC(=O)c2cc(NC(=O)c3ncccn3)ccc2F)n1 [Compound 1-314, trifluoroacetate]"
recorded_measurement = "< 300 nM"

[[record]]
compound = "CC(C)n1cnnc1-c1cccc(NC(=O)c2cc(NC(=O)c3ccccn3)ccc2F)n1 [Compound 1-307, hydrochloride]"
recorded_measurement = "< 300 nM"

[[record]]
compound = "C[C@H](CO)n1cnnc1-c1cccc(NC(=O)c2cc(NC(=O)c3ccccc3)ccc2F)n1"
recorded_measurement = "< 300 nM"

[[record]]
compound = "CC(C)n1cnnc1-c1cccc(NC(=O)c2cc(Oc3cccc(C4CC4)n3)ccc2F)n1 [Compound 1-213, trifluoroacetate]"
recorded_measurement = "< 300 nM"

[[record]]
compound = "CC(C)n1cnnc1-c1cccc(NC(=O)c2cc(Oc3cccc(N4CCCC4)n3)ccc2F)n1 [Compound 1-225, hydrochloride]"
recorded_measurement = "300 to 1000 nM"

[[record]]
compound = "CC(C)n1cnnc1-c1cccc(NC(=O)c2cc(Oc3cccnc3)ccc2F)n1 [Compound 1-211, hydrochloride]"
recorded_measurement = "< 300 nM"

[[record]]
compound = "CC(C)n1cnnc1-c1cccc(NC(=O)c2cccc(Oc3cc(CN)cc(C(F)(F)F)n3)c2)n1 [Compound 1-331, hydrochloride]"
recorded_measurement = "< 300 nM"

[[record]]
compound = "C[C@H](CO)n1cnnc1-c1cccc(NC(=O)c2cc(Nc3ccc(F)cc3)ccc2F)n1"
recorded_measurement = "300 to 1000 nM"

[[record]]
compound = "C[C@H](CO)n1cnnc1-c1cccc(NC(=O)c2cc(NCc3ccc(F)cc3)ccc2F)n1 [Compound 1-343, hydrochloride]"
recorded_measurement = "< 300 nM"

[[record]]
compound = "CC(C)n1cnnc1-c1cccc(NC(=O)c2cc(Oc3ccc(Br)cn3)ccc2F)n1 [Compound 1-337, hydrochloride]"
recorded_measurement = "300 to 1000 nM"

[[record]]
compound = "CC(C)n1cnnc1-c1cccc(NC(=O)c2cc(NC(=O)c3cc(CN)ccn3)ccc2F)n1 [Compound 1-332, hydrochloride]"
recorded_measurement = "< 300 nM"

[[record]]
compound = "CC(C)n1cnnc1-c1cccc(NC(=O)c2cc(NC(=O)Cc3ccccc3)ccc2F)n1 [Compound 1-333, trifluoroacetate]"
recorded_measurement = "< 300 nM"

[[record]]
compound = "CC(C)n1cnnc1-c1cccc(NC(=O)c2cc(Oc3ccccn3)ccc2F)n1 [Compound 1-210, hydrochloride]"
recorded_measurement = "< 300 nM"

[[record]]
compound = "CC(C)n1cnnc1-c1cccc(NC(=O)c2cc(NC(=O)c3cccnc3)ccc2F)n1 [Compound 1-308, hydrochloride]"
recorded_measurement = "< 300 nM"

[[record]]
compound = "CC(C)(C)OC(=O)NCc1cc(Oc2ccnc(C(=O)Nc3cccc(-c4nncn4C4CC4)n3)c2)nc(C(F)(F)F)c1"
recorded_measurement = "300 to 1000 nM"

[[record]]
compound = "CC(C)n1cnnc1-c1cccc(NC(=O)c2cc(NC(=O)c3ccc(C(=O)O)cc3)ccc2F)n1 [Compound 1-335, sodium salt]"
recorded_measurement = "< 300 nM"

[[record]]
compound = "CC(C)n1cnnc1-c1cccc(NC(=O)c2cc(NC(=O)c3ccc(Br)cn3)ccc2F)n1 [Compound 1-311, hydrochloride]"
recorded_measurement = "< 300 nM"

[[record]]
compound = "CC(C)n1cnnc1-c1cccc(NC(=O)c2cccc(Oc3cc(C#N)cc(C(F)(F)F)n3)c2)n1"
recorded_measurement = "< 300 nM"

[[record]]
compound = "CC(C)n1cnnc1-c1cccc(NC(=O)c2cc(Oc3cccc(Br)n3)ccc2F)n1 [Compound 1-336, hydrochloride]"
recorded_measurement = "< 300 nM"

